Target: MMP-1 (Homo sapiens)
Sequence (P03956 100-469): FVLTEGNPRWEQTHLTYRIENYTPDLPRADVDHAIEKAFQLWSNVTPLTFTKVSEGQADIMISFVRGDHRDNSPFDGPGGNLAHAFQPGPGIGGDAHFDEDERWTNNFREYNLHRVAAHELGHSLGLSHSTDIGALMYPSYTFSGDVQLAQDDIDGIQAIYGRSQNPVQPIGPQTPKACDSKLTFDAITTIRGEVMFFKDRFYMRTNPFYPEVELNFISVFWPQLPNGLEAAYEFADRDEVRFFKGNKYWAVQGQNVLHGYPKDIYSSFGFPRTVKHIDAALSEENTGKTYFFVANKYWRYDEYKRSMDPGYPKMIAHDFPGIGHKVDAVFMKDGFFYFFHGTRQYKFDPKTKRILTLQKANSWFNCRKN
Assay: MMP-1 inhibitory action (Type I collagen Activity Measurement kit, FITC-labeled collagen type I)
Format: biochemical
Conditions: MMP-1 inhibitory action, FITC-labeled collagen type I, 37° C. for 3 hr; read-out: IC50 MMP1 (Experimental Example 2)
pIC50: −log10 of the molar value.
Recorded pIC50 by entry

Fill in the blank: the reported pIC50 of O=C(Nc1cccc(C2CC2(NS(=O)(=O)c2ccc(-c3ccc(Cl)cc3)cc2)C(=O)O)c1)c1ccccn1 (stereo not shown) [Example 1-62] is ____. ≤ 6.00

C[C@@H]1[C@H](c2ccccc2)[C@]1(NS(=O)(=O)c1ccc(-c2cc(C(C)(F)F)on2)s1)C(=O)O [Example 2-9] ? > 7.00

O=C(O)C1(NS(=O)(=O)c2ccc(-c3ccc(Cl)cc3)cc2)CC1c1ccccc1Oc1ccccc1 (stereo not shown) [Example 1-14] ? ≤ 5.00

O=C(O)C1(NS(=O)(=O)N2CC=C(c3ccccc3)CC2)CC1c1ccccc1 (stereo not shown) [Example 2-148] ? ≤ 5.00

---

Recorded IC50 by entry
target: Recombinant Human MMP-13 (Homo sapiens); construct: purchased R&D systems 511-MM; assay: MMP-13 inhibitory activity (MMP-13 specific fluorescent substrate with quencher); type: biochemical; details: Recombinant Human MMP-13, fluorescent substrate, 25° C. for 1 h; read-out: IC50 MMP13 (Experimental Example 3)

[
  {
    "MOLECULE": "O=C(Cc1ccccc1C1CC1(NS(=O)(=O)c1ccc(-c2ccc(Cl)cc2)s1)C(=O)O)N1CCOCC1 (stereo not drawn)",
    "REPORTED_MEASUREMENT": "< 1000 nM"
  },
  {
    "MOLECULE": "O=C(O)C1(NS(=O)(=O)N2CCN(Cc3ccccc3)CC2)CC1c1ccccc1 (stereo not drawn)",
    "REPORTED_MEASUREMENT": "≥ 10000 nM"
  },
  {
    "MOLECULE": "CCCC(=O)c1ccc(S(=O)(=O)NC2(C(=O)O)CC2c2ccccc2)s1 (stereo not drawn)",
    "REPORTED_MEASUREMENT": "≥ 10000 nM"
  },
  {
    "MOLECULE": "CC1(C)COC(c2ccc(S(=O)(=O)N[C@@]3(C(=O)O)C[C@@H]3c3ccccc3)s2)=N1",
    "REPORTED_MEASUREMENT": "≥ 10000 nM"
  },
  {
    "MOLECULE": "O=C(O)C1(NS(=O)(=O)c2ccc(-c3ccc(Cl)cc3)cc2)CC1c1cccc(OCCn2cccn2)c1 (stereo not drawn)",
    "REPORTED_MEASUREMENT": "< 100 nM"
  }
]

Fill in the blank: the reported IC50 of O=C(O)C1(NS(=O)(=O)c2ccc(-c3ccc(Cl)cc3)s2)CC1c1cccc(CO)c1 (stereo not drawn) is ____. < 100 nM

O=C(O)C1(NS(=O)(=O)c2ccc(-c3ccc(Cl)cc3)s2)CC1Cc1ccccc1 (stereo not drawn) ? < 1000 nM

COCc1cccc(C2CC2(NS(=O)(=O)c2ccc(-c3ccc(Cl)cn3)s2)C(=O)O)c1 (stereo not drawn) ? < 100 nM

O=C(NCCc1cccc(C2CC2(NS(=O)(=O)c2ccc(-c3cc(C(F)(F)F)on3)s2)C(=O)O)c1)N1CCOCC1 (stereo not drawn) ? < 100 nM

O=C(NCC(F)(F)F)c1ccc(S(=O)(=O)NC2(C(=O)O)CC2c2ccccc2)s1 (stereo not drawn) ? ≥ 10000 nM

Cc1nc(-c2ccc(S(=O)(=O)NC3(C(=O)O)CC3c3ccccc3)s2)co1 (stereo not drawn) ? ≥ 1000 nM

O=C(O)C1(NS(=O)(=O)N2CCc3c([nH]c4ccccc34)C2)CC1c1ccccc1 (stereo not drawn) ? ≥ 10000 nM

CC(C)NC(=O)c1ccc(S(=O)(=O)NC2(C(=O)O)CC2c2ccccc2)s1 (stereo not drawn) ? ≥ 10000 nM

"C[C@]1(c2ccccc2)C[C@@]1(NS(=O)(=O)c1ccc(-c2ccc(Cl)cn2)s1)C(=O)O" ? < 1000 nM

O=C(O)C1(NS(=O)(=O)c2ccc(-c3ccc(Cl)cc3)cc2)CC1c1cccc(OCCN2CCOCC2)c1 (stereo not drawn) ? < 100 nM

---

Molecular target: UniProtKB O75173
Sequence (O75173 213-837): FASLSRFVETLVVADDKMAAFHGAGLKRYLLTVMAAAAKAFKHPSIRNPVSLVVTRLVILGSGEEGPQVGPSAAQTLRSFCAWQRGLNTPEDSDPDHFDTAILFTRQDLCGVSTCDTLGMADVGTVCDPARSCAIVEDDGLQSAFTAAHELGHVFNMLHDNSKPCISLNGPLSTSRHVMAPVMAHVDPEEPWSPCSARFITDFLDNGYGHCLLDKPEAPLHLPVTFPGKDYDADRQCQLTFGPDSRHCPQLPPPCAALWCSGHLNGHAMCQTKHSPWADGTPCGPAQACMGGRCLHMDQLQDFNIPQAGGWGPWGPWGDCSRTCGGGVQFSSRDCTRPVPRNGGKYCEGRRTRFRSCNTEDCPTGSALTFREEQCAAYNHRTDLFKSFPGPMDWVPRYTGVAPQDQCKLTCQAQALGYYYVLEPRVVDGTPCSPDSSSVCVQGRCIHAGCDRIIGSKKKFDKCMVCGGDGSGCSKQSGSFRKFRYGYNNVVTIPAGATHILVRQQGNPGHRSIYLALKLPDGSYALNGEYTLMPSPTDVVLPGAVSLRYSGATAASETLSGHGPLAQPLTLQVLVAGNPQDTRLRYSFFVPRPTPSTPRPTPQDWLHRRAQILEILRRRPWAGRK
Assay: Aggrecanase-1 inhibitory action (Particle Assay, GAG release from aggrecan-containing polyacrylamide particles)
Type: biochemical
Conditions: aggrecanase-1 inhibitory action; read-out: IC50 AG1 (Experimental Example 1)
pIC50: −log10 of the molar value.
Recorded pIC50 by entry

[
  {
    "MOLECULE": "O=C(c1cccc(C2CC2(NS(=O)(=O)c2ccc(-c3cc(C(F)(F)F)on3)s2)C(=O)O)c1)N1CCOCC1 (stereo not drawn)",
    "REPORTED_MEASUREMENT": "> 6.00"
  },
  {
    "MOLECULE": "NC(=O)c1cccc(C2CC2(NS(=O)(=O)c2ccc(-c3ccc(Cl)cc3)s2)C(=O)O)c1 (stereo not drawn)",
    "REPORTED_MEASUREMENT": "> 6.00"
  }
]

Fill in the blank: the reported pIC50 of O=C(c1ccccc1C1CC1(NS(=O)(=O)c1ccc(-c2ccc(Cl)cc2)s1)C(=O)O)N1CCOCC1 (stereo not drawn) is ____. > 7.00

"O=C(O)[C@]1(NS(=O)(=O)c2ccc(-c3cc(CF)sn3)s2)C[C@@H]1c1ccccc1" ? > 7.00

O=C(CCc1cccc(C2CC2(NS(=O)(=O)c2ccc(-c3ccc(Cl)cc3)s2)C(=O)O)c1)N1CCOCC1 (stereo not drawn) ? > 7.00

O=C(O)C1(NS(=O)(=O)c2ccc(-c3ccc(Cl)cc3)s2)CC1(CCCO)c1ccccc1 (stereo not drawn) ? > 7.00

Cc1nc(-c2ccc(S(=O)(=O)NC3(C(=O)O)CC3c3ccccc3)s2)c(Cl)o1 (stereo not drawn) ? ≤ 5.00

---

Recorded pIC50 by entry
biological target: MMP-1 (Homo sapiens, UniProt P03956); assay: MMP-1 inhibitory action (Type I collagen Activity Measurement kit, FITC-labeled collagen type I); format: biochemical; details: MMP-1 inhibitory action, FITC-labeled collagen type I, 37° C. for 3 hr; read-out: IC50 MMP1 (Experimental Example 2)
pIC50: −log10 of the molar value.

[
  {
    "COMPOUND": "O=C(O)[C@]1(NS(=O)(=O)c2ccc(-c3cccc(C(F)(F)F)c3)s2)C[C@@H]1c1ccccc1 [Example 2-134]",
    "pIC50": "≤ 5.00"
  },
  {
    "COMPOUND": "C[C@@H]1[C@H](c2ccccc2)[C@]1(NS(=O)(=O)c1ccc(-c2cc(C(F)(F)F)on2)s1)C(=O)O [Example 2-7]",
    "pIC50": "> 6.00"
  },
  {
    "COMPOUND": "CC1(C)COC(c2ccccc2C2CC2(NS(=O)(=O)c2ccc(-c3ccc(Cl)cc3)s2)C(=O)O)=N1 (stereo not shown) [Example 2-77]",
    "pIC50": "≤ 6.00"
  }
]

Checklist item: pIC50 tested on MMP-1 (Homo sapiens, UniProt P03956), entry O=C(O)C1(NS(=O)(=O)c2ccc(-c3ccc(Cl)cc3)s2)CC1c1cccc(NCc2cccnc2)c1 (stereo not shown) [Example 1-129] , value? ≤ 6.00

O=C(O)[C@]1(NS(=O)(=O)c2ccc(-c3noc4c3CCCC4)s2)C[C@@H]1c1ccccc1 [Example 2-154] ? ≤ 5.00

O=C(O)[C@]1(NS(=O)(=O)c2ccc(-c3ccc(Cl)cc3)s2)C[C@@H]1c1cccc(NCc2cccnc2)c1 [Example 2-173] ? ≤ 6.00

Ref: patent US20080261994A1
